Listed molecules paired with reported IC50
# Assayed System: METTL3/METTL14 (Homo sapiens, UniProt Q86U44)
# Sequence (Q86U44 whole entry, species assumed): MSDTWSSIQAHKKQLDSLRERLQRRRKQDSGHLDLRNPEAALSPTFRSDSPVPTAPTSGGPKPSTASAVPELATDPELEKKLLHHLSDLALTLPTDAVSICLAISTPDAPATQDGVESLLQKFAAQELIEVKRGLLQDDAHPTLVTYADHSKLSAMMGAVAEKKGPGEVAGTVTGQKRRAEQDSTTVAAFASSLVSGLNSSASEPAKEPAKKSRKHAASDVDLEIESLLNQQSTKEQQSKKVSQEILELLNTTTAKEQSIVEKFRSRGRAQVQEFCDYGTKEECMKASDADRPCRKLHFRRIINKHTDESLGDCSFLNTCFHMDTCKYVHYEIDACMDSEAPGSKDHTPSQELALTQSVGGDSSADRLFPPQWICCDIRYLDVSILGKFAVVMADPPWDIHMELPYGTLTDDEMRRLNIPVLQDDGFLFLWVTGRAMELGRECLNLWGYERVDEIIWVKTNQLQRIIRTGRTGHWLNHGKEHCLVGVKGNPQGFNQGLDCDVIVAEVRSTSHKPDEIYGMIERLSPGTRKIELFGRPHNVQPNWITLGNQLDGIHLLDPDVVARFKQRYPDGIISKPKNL
# Sequence (Q9HCE5 whole entry partner, species assumed): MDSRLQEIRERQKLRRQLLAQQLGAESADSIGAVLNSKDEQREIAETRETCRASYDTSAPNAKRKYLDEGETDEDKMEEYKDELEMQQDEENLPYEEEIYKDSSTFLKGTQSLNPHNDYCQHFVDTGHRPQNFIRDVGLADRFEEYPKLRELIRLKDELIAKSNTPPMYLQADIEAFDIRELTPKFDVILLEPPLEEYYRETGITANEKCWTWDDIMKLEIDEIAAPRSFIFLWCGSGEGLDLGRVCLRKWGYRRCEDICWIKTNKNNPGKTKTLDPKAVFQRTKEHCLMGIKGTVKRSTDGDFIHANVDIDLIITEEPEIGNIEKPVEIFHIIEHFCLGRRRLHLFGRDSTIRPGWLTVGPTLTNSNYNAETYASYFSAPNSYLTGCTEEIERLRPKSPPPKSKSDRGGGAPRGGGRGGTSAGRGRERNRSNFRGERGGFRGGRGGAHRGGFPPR
# Protocol Summary: METTL3-14 standard enzyme assay (3H-SAM flashplate)
# Stated Conditions: Table 4; METTL3 biochemical assay
# Experimental: METTL3-14 Standard Enzyme Assay Assays were performed in a 25 μl-volume in 384-well V-bottom polypropylene microplates (Greiner Bio-One, cat. No. 781280) at ambient temperature. […] Following two washing cycles with 0.1% Tween-20, the plates were sealed and read on a TopCount (PerkinElmer, Waltham, MA) plate-based scintillation counter. […]

As a guide, the following entries are already answered.
Cc1cc(NC(=O)[C@H]2O[C@@H](n3cc(-c4ccn(C)n4)c4c(N)ncnc43)[C@H](O)[C@@H]2O)n(C)n1 [Compound I-86] | ≥ 1000 nM
Cn1ccc(-c2cn([C@@H]3O[C@H](C(=O)NC4CC5(CNC5)C4)[C@@H](O)[C@H]3O)c3ncnc(N)c23)n1 [Compound I-210] | 100 to 1000 nM
CNc1ccc2ccc(NC(=O)[C@H]3O[C@@H](n4cc(-c5ccn(C)n5)c5c(N)ncnc54)[C@@H](F)[C@@H]3O)cc2n1 [Compound I-61] | < 10 nM
CCNc1ccnc(NC(=O)[C@H]2O[C@@H](n3cc(-c4ccn(C)n4)c4c(N)ncnc43)[C@H](O)[C@@H]2O)n1 [Compound I-36] | ≥ 1000 nM

Using the record for Cn1ccc(-c2cn([C@@H]3O[C@H](C(=O)NCC4(O)CCNCC4)[C@@H](O)[C@H]3O)c3ncnc(N)c23)n1 [Compound I-198] , report its IC50. 100 to 1000 nM

Now this one: Cn1ccc(-c2cn([C@@H]3O[C@H](C(=O)NCCN4CCOCC4)[C@@H](O)[C@H]3O)c3ncnc(N)c23)n1 [Compound I-65] ≥ 1000 nM

Okay, and CNc1ccc2ccc(N(CC[C@H](N)C(=O)O)C(=O)[C@H]3O[C@@H](n4cc(-c5ccn(C)n5)c5c(N)ncnc54)[C@H](O)[C@@H]3O)cc2n1 [Compound I-38] ? < 10 nM

---

Entries annotated with measured pIC50
# Assayed System: PRMT5-MEP50 (Homo sapiens, UniProt O14744)
# Sequence (O14744 whole entry): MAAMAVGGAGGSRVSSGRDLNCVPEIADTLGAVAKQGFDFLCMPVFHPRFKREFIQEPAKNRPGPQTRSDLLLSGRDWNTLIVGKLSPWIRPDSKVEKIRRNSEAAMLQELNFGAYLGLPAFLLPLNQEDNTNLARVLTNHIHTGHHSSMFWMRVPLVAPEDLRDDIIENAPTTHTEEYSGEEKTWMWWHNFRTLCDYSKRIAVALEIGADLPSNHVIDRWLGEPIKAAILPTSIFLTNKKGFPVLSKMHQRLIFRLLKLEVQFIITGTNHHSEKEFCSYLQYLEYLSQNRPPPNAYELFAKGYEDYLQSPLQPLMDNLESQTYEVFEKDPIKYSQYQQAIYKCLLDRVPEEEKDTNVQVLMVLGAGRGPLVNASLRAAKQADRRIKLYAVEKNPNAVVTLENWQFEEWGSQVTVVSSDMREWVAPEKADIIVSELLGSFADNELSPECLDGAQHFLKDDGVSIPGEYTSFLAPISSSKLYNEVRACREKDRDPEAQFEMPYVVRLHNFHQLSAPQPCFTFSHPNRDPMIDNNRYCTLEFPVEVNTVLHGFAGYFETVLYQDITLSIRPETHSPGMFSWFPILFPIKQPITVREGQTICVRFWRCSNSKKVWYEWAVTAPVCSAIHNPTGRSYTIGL
# Sequence (Q9BQA1 whole entry partner): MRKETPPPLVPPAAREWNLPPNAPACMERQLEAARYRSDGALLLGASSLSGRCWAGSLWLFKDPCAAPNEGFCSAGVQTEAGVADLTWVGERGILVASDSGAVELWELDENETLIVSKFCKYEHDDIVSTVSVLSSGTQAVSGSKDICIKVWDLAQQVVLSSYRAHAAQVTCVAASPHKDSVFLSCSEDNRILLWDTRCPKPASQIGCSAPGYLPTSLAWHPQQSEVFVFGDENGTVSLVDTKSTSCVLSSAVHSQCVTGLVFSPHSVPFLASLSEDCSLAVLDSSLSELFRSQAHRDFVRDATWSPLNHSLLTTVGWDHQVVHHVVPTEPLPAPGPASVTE
# Protocol Summary: PRMT5 assay (3H-SAM flashplate)
# Stated Conditions: Table 4; PRMT5 biochemical assay
# Procedure: Assays were performed in a 25 μl-volume in 384-well V-bottom polypropylene microplates (Greiner Bio-One, cat. No. 781280) at ambient temperature. Optimized 1× assay buffer was 20 mM Tris-HCl pH 8.0, 1 mM DTT, 0.01% Tween, 0.01%. […] Following two washing cycles with 0.1% Tween-20, the plates were sealed and read on a TopCount (PerkinElmer, Waltham, MA) plate-based scintillation counter. […]
pIC50: −log10 of the molar value.

Cn1ccc(-c2cn([C@@H]3O[C@H](C(N)=O)[C@@H](O)[C@H]3O)c3ncnc(N)c23)n1 [Compound I-54] | 6.00 to 7.00
C[C@H](NC(=O)[C@H]1O[C@@H](n2cc(-c3ccn(C)n3)c3c(N)ncnc32)[C@H](O)[C@@H]1O)C1CCNCC1 [Compound I-195] | 6.00 to 7.00
CN1CCC(N(CCCN)C(=O)[C@H]2O[C@@H](n3cc(-c4ccn(C)n4)c4c(N)ncnc43)[C@H](O)[C@@H]2O)CC1 [Compound I-146] | 7.00 to 8.00
Cn1ccc(-c2cn([C@@H]3O[C@H](C(=O)NCCc4ccccc4)[C@@H](O)[C@H]3O)c3ncnc(N)c23)n1 [Compound I-192] | 6.00 to 7.00
CN1CCC(N(CCCc2nn[nH]n2)C(=O)[C@H]2O[C@@H](n3cc(-c4ccn(C)n4)c4c(N)ncnc43)[C@H](O)[C@@H]2O)CC1 [Compound I-48] | 7.00 to 8.00
Cn1ccc(-c2cn([C@@H]3O[C@H](C(=O)N(CC[C@H](N)C(=O)O)c4ccc5nc(N)[nH]c5c4)[C@@H](O)[C@H]3O)c3ncnc(N)c23)n1 [Compound I-39] | ≤ 6.00
CC1CC(NC(=O)[C@H]2O[C@@H](n3cc(-c4ccn(C)n4)c4c(N)ncnc43)[C@H](O)[C@@H]2O)CCN1 (stereo in doubt) [Compound I-212] | 6.00 to 7.00
COc1cccc(NC(=O)[C@H]2O[C@@H](n3cc(-c4ccn(C)n4)c4c(N)ncnc43)[C@H](O)[C@@H]2O)c1 [Compound I-157] | 6.00 to 7.00

Let us move to another entry and its pIC50.
Give PRMT5-MEP50 (Homo sapiens, UniProt O14744) pIC50 for Cn1ccc(-c2cn([C@@H]3O[C@H](C(=O)NC4CC5(CNC5)C4)[C@@H](O)[C@H]3O)c3ncnc(N)c23)n1 [Compound I-210] 7.00 to 8.00

Where do the numbers come from? From patent US20240051985A1.
